From: patent US20240368133A1

- Procedure details: Liver microsomal stability, human
- Format: in vitro ADME
- Condition set: pH 7.4, liver microsomes
Readout: microsomal CLint (µL/min/mg)

The following molecules have reported results that may help.
CC(C)Oc1ccc(-c2nn[nH]n2)c(N2CCN(Cc3nc4ccccc4s3)CC2)c1 = 12
COc1ccnc(CN2CCN(c3cc(CC(C)C)cc(F)c3-c3nn[nH]n3)C[C@@H]2C)c1 = 16.5

A. CC(C)Oc1ccc(-c2nn[nH]n2)c(N2CCN(Cc3nc4ccccc4c(=O)[nH]3)CC2)c1
B. CC(C)Cc1ccc(-c2nn[nH]n2)c(N2CCN(Cc3nc4ccccc4n3C)CC2)c1
Query string: Hi team, can someone confirm which has the larger microsomal CLint: A or B ? Thanks. Selection: enter the item's label.
Result string: B
(B: 24 µL/min/mg, A: 10 µL/min/mg)

I. CC(C)Cc1ccc(-c2nn[nH]n2)c(N2CCN(Cc3ncccn3)CC2)c1
II. CC(C)Cc1ccc(-c2nn[nH]n2)c(N2CCN(Cc3nc4ccccc4s3)CC2)c1
Query string: Which of these two has the smaller recorded microsomal CLint: I or II ? Your answer should be the label attached to the chosen record.
Result string: I
(I: 6 µL/min/mg, II: 32 µL/min/mg)
